These data points were gathered from PubChem BioAssay.

# Protocol Summary: growth inhibition, single agents and combos, ICB984, cell-based, cisplatin or BGB combos, synergistic combos for chromothripsis tumors (AID 1671451);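 note: cells exposed for 96 hours before readout; 0% = vehicle DMSO and 100% = killing by high DMSO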
# Test Context: ICB984 medulloblastoma cells, drug combinations, BGB IC40 combo, at 0.005 µM, stronger effect = higher value
Attribute Measured: inhibition

Check out these entries, answers already filled in.
CCC1(O)C(=O)OCc2c1cc1n(c2=O)Cc2cc3cc(O)ccc3nc2-1 (centres undefined) :: -6.67%
CCC(Sc1nnc2c3ccccc3n(CC)c2n1)C(=O)Nc1ccccc1OC (centres undefined) :: -12.8%
Cc1ccc(NC(=O)CCCCCC(=O)Nc2ccccc2N)cc1 :: -26.5%

For every item below, please supply its inhibition.
1. COc1cccc2c1C(=O)c1c(O)c3c(c(O)c1C2=O)CC(O)(C(C)=O)CC3OC1CC(N)C(O)C(C)O1 (centres undefined)
2. CC(=O)C1(O)Cc2c(O)c3c(c(O)c2C(OC2CC(N)C(O)C(C)O2)C1)C(=O)c1ccccc1C3=O (centres undefined)
3. O=c1[nH]cnc2c1ncn2C1CCC(CO)O1 (centres undefined)

Response line:
["98%", "95.4%", "-17.3%"]

Respectfully, I request inhibition for each entry included below.
1. CC1OC(CC(=O)O)CC2=C1C(=O)c1c(O)cccc1C2=O (centres undefined)
2. Cc1ccc([N+](=O)[O-])cc1S(=O)(=O)N(C)/N=C\c1cnc2ccc(Br)cn12
3. CC(C)(C#N)c1ccc(N2C(=O)OCc3cnc4ccc(-c5cnc6ccccc6c5)cc4c32)cc1
4. C=C1C(=O)O[C@@H]2C=C(C)CCC=C(C)CC[C@@H]12
5. Nc1nc(NC2CC2)cc(-c2cccc(Cl)c2Cl)n1

Response line:
["102%", "95.5%", "-8.9%", "-33%", "-42.9%"]

====

# Protocol Summary: viability loss with induced miR-34 in A549 – imaging, A549 dox-inducible miR-34, nuclei and caspase counts, primary screen (AID 1347080)
# Test Context: A549 miR-34 inducible, Hoechst nuclei count, 48 h; measured here: relative caspase fold change +Dox/-Dox
Numbered stars: 1 amine (or outer) side, 2 acyl side, 3 side chain; on linkers, the order of the positions; unused ones are H or OH. Bridge positions count the residues as written; N and C are the ends. Square brackets hold non-standard residues; d marks the D form. Peptide text beside a SMILES is read from it. * marks the point of attachment. X4 = NC1=N[C@@H]([C@H](N[*:1])C(=O)[*:2])C[C@H](O)N1; ΔAla(Z-3-ureido) = NC(=O)N/C=C(\N)C(=O)O; β3hOrn = NCCC[C@H](N)CC(=O)*; Dap = NC[C@H](N)C(=O)O
Attribute Measured: fold change
Answers are plain numbers.

Before answering, review these 4 worked examples.
CC(=O)C1CC[C@H]2[C@@H]3CC=C4CC(O)CC[C@]4(C)[C@@H]3CC[C@]12C (some centres not stated) :: 0.867
Nc1ncn(C2CC(O)C(CO)O2)c(=O)n1 (configuration not stated) :: 0.727
NCc1c[nH]c(=S)n1C1CCc2c(F)cc(F)cc2C1 (configuration not stated) :: 2.13
CC1=C(CC(=O)O)c2cc(F)ccc2/C1=C/c1ccc(S(C)=O)cc1 (configuration not stated) :: 1.38

Below are 6 molecules. Give each one its fold change.
1. COc1ccc(-c2cc3ncc(C)n3c(Nc3ncccc3C(N)=O)n2)cc1OC
2. NS(=O)(=O)c1ccc(F)cc1
3. CCCCC(F)(F)C(=O)CCC1C(O)CC(=O)C1CCCCCCC(=O)O (configuration not stated)
4. CN[C@@H]1C(O[C@H]2O[C@H](CO)[C@@H](N)[C@H](O)[C@H]2O)O[C@H]2C[C@@H](N)[C@@H](O[C@H]3[C@H](O)[C@@H](O)[C@H](N)C[C@@H]3N)OC2[C@@H]1O (some centres not stated)
5. CC(Nc1nc(N)nc2[nH]ncc12)c1ccc(Cl)cc1 (configuration not stated)
6. O=C(Nc1cc(C(F)(F)F)ccc1N1CCCCC1)c1ccncc1

Response line:
1. 1.3
2. 0.251
3. 0.726
4. 0.823
5. 1.28
6. 0.317

Hey, can you go through the list below and give me fold change for every item?
1. CC(C)C(C(=O)Nc1ccc(C(=O)NO)cc1)c1ccccc1 (configuration not stated)
2. CC(C)n1cc(-c2cc(C(=O)N(C)Cc3cccnc3)c3ccc(F)cc3n2)cn1
3. NC(=O)c1noc(C(CCCC2CCCCC2)CC(=O)NO)n1 (configuration not stated)
4. Cn1nc(C(C)(C)C)cc1NC(=O)Nc1ccc(Cl)cc1
5. CC(=O)Nc1nc2c(Oc3cc(-c4ccc(C(F)(F)F)cc4)ncn3)cccc2s1
6. COc1cc2c(cc1-c1nnc3ccccn13)OCO2
7. Cc1[nH]c(C=C2C(=O)Nc3ccc(S(=O)(=O)N(C)c4cccc(Cl)c4)cc32)c(C)c1C(=O)N1CCN(C)CC1

Response line:
[0.891, 1.28, 1.15, 1.05, 0.45, 2.79, 0.91]

Please state, for each entry, its recorded fold change.
1. CNC(=O)[C@H]1O[C@@H](n2cnc3c(NCc4ccc(N)cc4)ncnc32)C(O)[C@H]1O (some centres not stated)
2. COc1cc(F)c(-c2nc3c(cnn3Cc3cccs3)[nH]2)c(F)c1
3. CO[C@@H]1[C@@H](OC(N)=O)[C@@H](O)C(Oc2ccc3c(O)c(NC(=O)c4ccc(O)c(CC=C(C)C)c4)c(=O)oc3c2C)OC1(C)C (some centres not stated)

Response line:
1: 1.7; 2: 1.31; 3: 1.4

Give one value of fold change per listed molecule.
1. CNc1nc(-c2ccc3c(N)n[nH]c3c2)cc(N2CC(C(=O)NC3CCCCC3)CCC2C)n1 (configuration not stated)
2. NCCC[C@H](N)CC(=O)N[C@H]1CNC(=O)[C@H]([C@H]2C[C@H](O)NC(N)=N2)NC(=O)/C(=C/NC(N)=O)NC(=O)[C@H](CO)NC(=O)[C@H](CO)NC1=O (β3hOrn-[Dap]SS[ΔAla(Z-3-ureido)][X4]; lactam 1-C)
3. Nc1nc(SCc2ccc([N+](=O)[O-])cc2)c2ncn([C@@H]3O[C@H](CO)[C@H](O)C3O)c2n1 (some centres not stated)
4. CCc1ccc(-c2nn(CC(=O)Nc3cnn(C)n3)c3ccccc23)cc1

Response line:
1. 0.791
2. 0.791
3. 0.784
4. 1.48

====

# Protocol Summary: viability loss with induced miR-34 in A549 – imaging, A549 dox-inducible miR-34, nuclei and caspase counts, primary screen (AID 1347080)
# Test Context: A549 miR-34 inducible, Hoechst nuclei count, 48 h; measured here: total cells with miR-34 induction; stronger effect = lower value
Attribute Measured: cell count
Give bare numbers.

O=C1Nc2ccc(I)cc2C1=Cc1cc(Br)c(O)c(Br)c1 :: 7930
COc1ccnc2[nH]cc(C(=O)C(=O)N3CCN(C(=O)c4ccccc4)CC3C)c12 (stereo unspecified) :: 9920
OC[C@H]1O[C@@H](n2cnc3c(NC4CCCCC4)ncnc32)[C@H](O)[C@@H]1O :: 9650

Respectfully, I request cell count for each entry included below.
1. CCCCOC(=O)NS(=O)(=O)c1sc(CC(C)C)cc1-c1ccc(Cn2c(CC)nc3c(C)cc(C)nc32)cc1
2. CCC(=O)O[C@H]1CCC2C3CCc4cc(O)ccc4C3CC[C@@]21C (stereo partly specified)
3. COc1ccc(OC)c(-c2nc3ccccc3o2)c1
4. NC(N)=[N+]1CCc2ccccc2C1

Response line:
1: 4700; 2: 10500; 3: 6950; 4: 8570

Report cell count for each item below.
1. CCCCC[C@H](O)/C=C/[C@H]1OC(O)C[C@H](O)[C@@H]1C/C=C\CCCC(=O)O (stereo partly specified)
2. Cc1nc(Nc2n[nH]c3c2CN(C(=O)NC(CN(C)C)c2ccccc2)C3(C)C)c2sccc2n1 (stereo unspecified)
3. CC(=O)C1CC[C@H]2[C@@H]3CCC4=CC(=O)CC[C@]4(C)[C@@H]3CC[C@]12C (stereo partly specified)
4. COc1ccc(S(=O)(=O)N2CCN(S(=O)(=O)c3ccc4c(c3)OCCO4)CC2)cc1

Response line:
1: 5370; 2: 1510; 3: 7050; 4: 8270

# batch: return cell count for each of the 5 compounds below
1. O=C(O)c1ccc(-c2ccccc2C(F)(F)F)o1
2. OCc1ccccc1OC1OC(CO)C(O)C(O)C1O (stereo unspecified)
3. COc1ccc2[nH]cc(CCC(=O)O)c2c1
4. NC(=O)c1ccccc1-c1cccc2ccccc12
5. CC[N+]1(C)[C@@H]2CC[C@H]1CC(OC(=O)[C@H]1CCC(C(=O)OC3C[C@H]4CC[C@@H](C3)[N+]4(C)CC)(c3ccccc3)c3ccccc31)C2 (stereo partly specified)

Response line:
1. 8380
2. 9350
3. 8310
4. 7950
5. 9010

====

# Protocol Summary: MELAS cybrid and Rieske KO viability enhancers – cell-based, MELAS cybrids, Rieske KO mouse fibroblasts, CellTiter-Glo, primary screen (AID 1508586);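 note: z relative to plate mean and SD of compound and empty wells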
# Test Context: Rieske KO mouse fibroblast survival, low glucose, CellTiter-Glo 72 h
Attribute Measured: z-score

# batch size: 2; output z-score per entry
1. C#C[C@]1(O)CC[C@H]2[C@@H]3CCC4=CC(=O)CC[C@@H]4[C@@H]3CC[C@@]21C
2. CCCSc1nc(NC2CC2c2ccc(F)c(F)c2)c2nnn(C3CC(OCCO)C(O)C3O)c2n1 (stereo not given)

Response line:
1. -0.172
2. -0.123
